Target: pooled human IgG (human IgG1, 2, 3 and 4)
# Enzyme Activity Endpoint Assay (purified): Fc listing for each entry below
metric: Enzyme Activity Endpoint Assay (purified): Fc (ng/µL)

INSERT INTO results (protein, endpoint_value) VALUES
  ('PRT-441 (protein) MSQTEDSESLQRLRDIEDFQAEKKKQNVVYTKWLDGVDVKDHDFRKIVDGNIAYYATPLLNGRGFYDINKDFNRDSDKCAAAVAANMFHYWLDRNRDNVDRFLRQNPEKHGIIELPDGQLKLSDFLNTYESDDGYRDKSKLFDFISNNFNGPVWTDKLLDNYINGYAYNYKYGRTIEDPTKNTSKINFFKEVFNEKILTNNHSIRNQNEFSVLLSEALYTGKAIGLSYGPAGTRHSLGHIISVWGADLDADGNVVAIYVTDSDDKKLTIGDERVGLKRYKISTDDEGRLRLTAYEETHNTGGQIRGLWTLDTGKQAWADYFDKTEQTGTDQAEQ', 310),
  ('PRT-594 (protein) MANQEIRYSEETPSTITSVWTKGVTPPTDFIQNEDVLHAPYIANQGWYDITKTFNGKDDLLCGAATAGNMLHWWFDQNKEQIENYLKKHPEKQKINFNGEQMFDVKEAIDTKDSQLDSALFEYFKDKAFPYLSTKHLGVFPDHVIDMFINGYRLSLTNHGPTPVKRGTKDPRGGIFDAVFTRGDQSKLLTSRHDFKEKTLNEISDLIKQELTEGKALGLSHTYANVRINHVINLWGADFNAEGNLEAIYVTDSDSNASIGMKKYYVGVNSAGKVAISAKEIEGDNIGAQVLGLFTLSTGQDIWNQTNLEHHHHHH', 271);
